molecular target: GPR88 (Homo sapiens); assay: Lance Ultra TR-FRET cAMP assay using stable PPLS-HA-GPR88 CHO cells; conditions: stable PPLS-HA-GPR88 CHO cells; value in parentheses beside pEC50
Parameter log10 EC50: see the listing below.
Heads up, the numbers here are log10 of EC50 in nM units.

Example cases with answers are listed next.
CC[C@H](C)COc1ccc([C@@H](CO)C(=O)N[C@H](C)c2ccccc2)cc1    3.30
CCCc1ccc(-c2ccc(N(C[C@@H](N)[C@@H](C)CC)C(=O)NCc3ccccc3)cc2)cc1    3.30
CCCC(C)COc1ccc([C@@H](CO)C(=O)N[C@H](C)c2ccccc2)cc1 (stereo partly drawn)    2.30
CCCCCCc1ccc(N(C[C@@H](N)[C@@H](C)CC)C(=O)N[C@@H](C)c2ccccc2)cc1    3.14

So what does the record say about log10 EC50 for C[C@@H](NC(=O)[C@H](CO)c1ccc(-c2ccc(OC3CC3)cc2)cc1)c1ccccc1 ?
2.39

Form field: reported log10 EC50 of CO[C@H](C)[C@H](N)CN(C(=O)N[C@@H](C)c1ccccc1)c1ccc(-c2ccc(C)cc2)cc1
2.66

What does the data say about its log10 EC50? Entry: CCCc1ccc(-c2ccc(N(C[C@@H](N)[C@@H](C)OC)C(=O)N[C@@H](C)c3ccccc3)cc2)cc1
2.51

// returns reported log10 EC50 for input CCCc1ccc(-c2ccc([C@@H](CO)C(=O)N[C@H](C)c3ccccc3)cc2)cc1
2.14

Quick one: log10 EC50 for CO[C@H](C)[C@H](N)CN(C(=O)N[C@@H](C)c1ccccc1)c1ccc(-c2ccc(OC(C)C)cc2)cc1 ?
2.61

Recorded log10 EC50 of CO[C@H](C)[C@H](N)CN(C(=O)N[C@@H](C)c1ccccc1)c1ccc(C#CCC(C)C)cc1 , please.
2.56

GET /values?readout=log10 EC50&item= CCCc1ccc(-c2ccc(N(C[C@H](C)N)C(=O)N[C@@H](C)c3ccccc3)cc2)cc1
3.11

Give the measured log10 EC50 of CCCc1ccc(-c2ccc(N(C[C@@H](N)[C@@H](C)CC)C(=O)N[C@@H](CC)c3ccccc3)cc2)cc1 .
3.30

====

target: GPR88 (Homo sapiens); construct: expressed in transfected cells; assay: Lance Ultra TR-FRET cAMP assay using stable PPLS-HA-GPR88 CHO cells; type: cell-based; conditions: CHO
Measured attribute: Emax (%)
Provide only the numeric value, understood in %.

Reference set (6 entries):
CCCC(C)COc1ccc([C@@H](CO)C(=O)NC(C)(C)c2ccccc2)cc1 (stereo partly drawn)    83
CCCC(C)COc1ccc([C@@H](CO)C(=O)N[C@H](C)c2ccccn2)cc1 (stereo partly drawn)    93
CCCc1ccc(-c2ccc(N(C[C@@H](N)[C@@H](C)CC)C(=O)N[C@@H](C)c3ccccc3)cc2)cc1    106
CCCc1ccc(-c2ccc(N(C[C@@H](N)[C@@H](C)CC)C(=O)N[C@@H](CC)c3ccccc3)cc2)cc1    103
CC[C@@H](C)COc1ccc([C@@H](CO)C(=O)N[C@H](C)c2ccccc2)cc1    96
CCCc1ccc(-c2ccc(N(C[C@@H]3CCCN3)C(=O)N[C@@H](C)c3ccccc3)cc2)cc1    106

Attention now turns to another entry.
So what's the measured Emax for this one? CCCc1ccc(-c2ccc(N(C[C@H](C)N)C(=O)N[C@@H](C)c3ccccc3)cc2)cc1
107

====

molecular target: GPR88 (Homo sapiens, UniProt Q9GZN0); construct: expressed in transfected cells; experiment: Lance Ultra TR-FRET cAMP assay using stable PPLS-HA-GPR88 CHO cells; type: cell-based; settings: CHO
Sequence (Q9GZN0 whole entry): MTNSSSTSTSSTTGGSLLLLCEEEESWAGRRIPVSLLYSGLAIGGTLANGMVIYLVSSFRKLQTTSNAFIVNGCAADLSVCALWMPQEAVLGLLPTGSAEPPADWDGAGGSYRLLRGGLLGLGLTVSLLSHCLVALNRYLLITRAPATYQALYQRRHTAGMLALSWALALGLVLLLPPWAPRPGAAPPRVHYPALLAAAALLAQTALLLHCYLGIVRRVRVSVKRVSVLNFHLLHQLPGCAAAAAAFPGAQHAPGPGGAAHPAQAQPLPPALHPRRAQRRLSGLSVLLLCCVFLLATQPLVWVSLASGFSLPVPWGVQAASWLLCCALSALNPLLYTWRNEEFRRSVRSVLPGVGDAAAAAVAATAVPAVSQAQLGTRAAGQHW
Measured Emax values are reported for all entries that follow.
All answers are understood in %, so give the number only.

CCCc1ccc(-c2ccc(C(C(=O)N[C@H](C)c3ccccc3)C(=O)OC)cc2)cc1 (mixture of isomers) [Compound 28]    99
CCCc1ccc(-c2ccc(N(C[C@@H](N)[C@@H](C)OC)C(=O)N[C@@H](C)c3ccccc3)cc2)cc1 [Compound 54]    106
CCCc1ccc(-c2ccc([C@@H](Cn3cncn3)C(=O)N[C@H](C)c3ccccc3)cc2)cc1 [Compound 30]    96
CCCC#Cc1ccc([C@@H](CO)C(=O)N[C@H](C)c2ccccc2)cc1 [Compound 36]    92
CCCC(C)COc1ccc([C@@H](CO)C(=O)NCCc2ccccc2)cc1 (stereo partly drawn) [Compound 16]    97
CCCC(C)COc1ccc([C@H](CO)C(=O)N[C@H](C)c2ccccc2)cc1 (stereo partly drawn) [Compound 3]    77
CO[C@H](C)[C@H](N)CN(C(=O)N[C@@H](C)c1ccccc1)c1ccc(-c2ccc(C)cc2)cc1 [Compound 55]    114
C[C@@H](NC(=O)[C@H](CO)c1ccc(-c2ccc(OC3CC3)cc2)cc1)c1ccccc1 [Compound 34]    86

Lab note: next compound to report on.
Find Emax (GPR88 (Homo sapiens, UniProt Q9GZN0)) for the entry CCCc1ccc(-c2ccc(N(C[C@@H](N)[C@@H](C)CC)C(=O)N[C@@H](COC)c3ccccc3)cc2)cc1 [Compound 48]
110

====

target: GPR88 (Homo sapiens); construct: expressed in transfected cells; test: Lance Ultra TR-FRET cAMP assay using stable PPLS-HA-GPR88 CHO cells; format: cell-based; settings: CHO
Measured attribute: Emax (%)
Numeric answer only, unit % assumed.

Here is how some compounds turned out for Emax.
CCCC(C)COc1ccc([C@@H](CO)C(=O)NCc2ccccc2)cc1 (stereo partly shown) [Compound 15]    99
CCCc1ccc(-c2ccc(N(C[C@H](N)CC(C)C)C(=O)N[C@@H](C)c3ccccc3)cc2)cc1 [Compound 51]    129
CCCc1ccc(-c2ccc(N(C[C@@H](N)[C@@H](C)CC)C(=O)NCc3ccccc3)cc2)cc1 [Compound 40]    97

Please find the next compound below.
Sample CCCC(C)COc1ccc([C@@H](CO)C(=O)N[C@H](C)c2cccc(C)c2)cc1 (stereo partly shown) [Compound 10] — what was its Emax?
100

====

molecular target: GPR88 (Homo sapiens, UniProt Q9GZN0); construct: expressed in transfected cells; experiment: Lance Ultra TR-FRET cAMP assay using stable PPLS-HA-GPR88 CHO cells; assay type: cell-based; conditions: CHO
Recorded Emax, one value per entry.
Report the figure in % without appending any unit label.

Some compounds with recorded Emax:
C[C@@H](NC(=O)[C@H](CO)c1ccc(-c2ccc(OC3CCC3)cc2)cc1)c1ccccc1    90
CCCC(C)COc1ccc([C@@H](CO)C(=O)N[C@H](C)c2ccc(OC)cc2)cc1 (stereo partly shown)    94
CCCc1ccc(-c2ccc([C@@H](CC)C(=O)N[C@H](C)c3ccccc3)cc2)cc1    93
CCCCCCc1ccc(N(C[C@@H](N)[C@@H](C)CC)C(=O)N[C@@H](C)c2ccccc2)cc1    108
CCCc1ccc(-c2ccc(N(C[C@@H](N)[C@@H](C)CC)C(=O)N[C@@H](C)c3ccco3)cc2)cc1    115

# Emax lookup, item CO[C@H](C)[C@H](N)CN(C(=O)N[C@@H](C)c1ccccc1)c1ccc(-c2ccc(OC(C)C)cc2)cc1
100

Which Emax value belongs to CO[C@H](C)[C@H](N)CN(C(=O)N[C@@H](C)c1ccccc1)c1ccc(C#CCC(C)C)cc1 ?
103

I am curious: what Emax value has been reported for COc1ccc(-c2ccc(N(C[C@@H](N)[C@@H](C)OC)C(=O)N[C@@H](C)c3ccccc3)cc2)cc1 ?
101

Recorded Emax of CCCc1ccc(-c2ccc(N(C[C@@H](N)[C@@H](C)CC)C(=O)NC3(c4ccccc4)CC3)cc2)cc1 , please.
91

Name the reported Emax value associated with the compound CCCC(C)COc1ccc([C@@H](CO)C(=O)N[C@H](C)c2cccs2)cc1 (stereo partly shown)
93

====

List of EC50 values.
biological target: GPR88 (Homo sapiens); construct: expressed in transfected cells; experiment: Lance Ultra TR-FRET cAMP assay using stable PPLS-HA-GPR88 CHO cells; type: cell-based; details: stable PPLS-HA-GPR88 CHO cells; value in parentheses beside pEC50
Form entry: enter the amount, then its unit.

Sample answers from the record:
C[C@@H](NC(=O)[C@H](CO)c1ccc(-c2ccc(CC3CC3)cc2)cc1)c1ccccc1    0.263 µM
CCOc1ccc(-c2ccc(N(C[C@@H](N)[C@@H](C)OC)C(=O)N[C@@H](C)c3ccccc3)cc2)cc1    0.676 µM

Param readout = EC50; param system = GPR88 (Homo sapiens); param query = CCCc1ccc(-c2ccc(N(C[C@H](N)CC(C)C)C(=O)N[C@@H](C)c3ccccc3)cc2)cc1 ; response: value
1.41 µM

====

molecular target: GPR88 (Homo sapiens); construct: expressed in transfected cells; assay: Lance Ultra TR-FRET cAMP assay using stable PPLS-HA-GPR88 CHO cells; format: cell-based; conditions: CHO
Measured attribute: Emax (%)
Supply the numeric figure in %, leaving out any unit text.

C[C@@H](NC(=O)[C@H](CO)c1ccc(-c2ccc(C3CCC3)cc2)cc1)c1ccccc1    74
CCCc1ccc(-c2ccc(C(C(=O)NC)C(=O)N[C@H](C)c3ccccc3)cc2)cc1 (mixture of isomers)    105
CC[C@H](C)COc1ccc([C@@H](CO)C(=O)N[C@H](C)c2ccccc2)cc1    88
CCOc1ccc(-c2ccc(N(C[C@@H](N)[C@@H](C)OC)C(=O)N[C@@H](C)c3ccccc3)cc2)cc1    102
CCCC(C)COc1ccc([C@@H](CO)C(=O)N[C@H](COC)c2ccccc2)cc1 (some centres unmarked)    91
CCCc1ccc(-c2ccc(N(C[C@@H](N)[C@@H](C)CC)C(=O)N[C@H]3C[C@@H]3c3ccccc3)cc2)cc1    110
CCCC(C)COc1ccc([C@@H](CO)C(=O)N[C@H](C)c2ccc(C)cc2)cc1 (some centres unmarked)    102

Here's the next entry for you.
Item: CCCc1ccc(-c2ccc([C@@H](Cn3ccnn3)C(=O)N[C@H](C)c3ccccc3)cc2)cc1 Test system: GPR88 (Homo sapiens) Read-out: Emax Value: ?
96
